B1: glmS ribozyme (parent)
chain: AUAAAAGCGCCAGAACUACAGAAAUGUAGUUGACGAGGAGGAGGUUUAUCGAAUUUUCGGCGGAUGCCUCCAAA

# Variants of: B1
# RUN DESCRIPTION: self-cleavage kobs at 10000 uM GlcN6P; higher = faster cleavage; RNA array
# CONDITION SUMMARY: with glucosamine-6-phosphate
Variants at the floor of the assay were thinned out.
Would you please tag the item 1.0 when its self-cleavage kobs at 10000 uM GlcN6P is 0.0003 s⁻¹ or above, and 0.0 when it is below?

SEQ STRING: AUAAAAGCGCCAGAACUACAGAAAUGUAGUUGACGAGGAGGAGGAUUAUCGAAUCUCCGGCGGAUGCCUCCAAA [U45A U55C U57C]
ASSIGNED CATEGORY: 1.0
//
SEQ STRING: AUAAAAGCGCCAGAACUACAGAAAUGUAGUUGACGAGGAGGCGGUUUAUUGAAUUUUCGGCGGAUGCCUCCAAA [A42C C50U]
ASSIGNED CATEGORY: 0.0
//
SEQ STRING: AUAAAAGCGCCAGAACUACAGAAAUGUAGUCGACGAGGAGGAGGUUUAUCGAAAUUUCGGCGGAUGCCUCCAAA [U31C U54A]
ASSIGNED CATEGORY: 1.0
//
SEQ STRING: AUAAAAGCUCCAGCACUACAGAAAUGUAGUUGACGCGGAGGAGGUAUAUCGAAUUUUCGGCGGAUGCCUCCAAA [G9U A14C A36C U46A]
ASSIGNED CATEGORY: 0.0
//
SEQ STRING: AUAAAAGCGCCAGAACUACAGAAAUGUAGUUGACGAGGAGGAGGUUUAUCGACUUUUCGGCUGAUGCCUCCAAA [A53C G62U]
ASSIGNED CATEGORY: 0.0
//
SEQ STRING: AUAAAAGCGCCAGAUCUACAGAAAUGUAGUUGACGAGGAGGAGGUUUAUCGAAUUUUCGGCGGAUGCCUCGAAA [A15U C71G]
ASSIGNED CATEGORY: 1.0
//
SEQ STRING: AUAAACGCGCCCGAACUACAGAAAUGUAGUUGACGAGGAGGAGGUUUAUCGAAUUUGCGGCGGAUGCCUCCAAA [A6C A12C U57G]
ASSIGNED CATEGORY: 0.0
//
SEQ STRING: AUAAAAGCGCCACAACUACAGAAAUGUAGUGGACGAGGAGGAGGUUUAUCGAAUUUUCGGCGGAUGCCUUCAAA [G13C U31G C70U]
ASSIGNED CATEGORY: 0.0
//
SEQ STRING: AUAAAAGCGCCAGAACUACAGAAAUGUAGUUGACGAGGUGGAGGUUUAUCGAAUUCUCGGCGGAUGCCUCCAAA [A39U U56C]
ASSIGNED CATEGORY: 1.0
//
SEQ STRING: AUAAAAGCGCCAGAACUACAGAAAUGUAGCUGACGAGGAGGAGGUUUAUCGAAUUUUCGUCGGAUGCCUCCAAA [U30C G60U]
ASSIGNED CATEGORY: 0.0
//
SEQ STRING: AUAAAAGCGCCAGAACUACAGAAAUGUAGUUGACGAGGUGGAGGUUUAUCGAAUUAUCGGCGGAGGCCUCCAAA [A39U U56A U65G]
ASSIGNED CATEGORY: 1.0
//
SEQ STRING: AUAAAAGCGCCAGAACUACAGAAAUGUAGUUGACGAGGGCGAGGUUUAUCGAAUUUUCGGCGGAUGUCUCCAAA [A39G G40C C67U]
ASSIGNED CATEGORY: 0.0
//
SEQ STRING: AUAAAAGCGCCAGAGCUACAGAAAUGUAGUUGACGAGGAGGAGGUUUAUCGAAUUUUCGGCGGAUGACUCUAAA [A15G C67A C71U]
ASSIGNED CATEGORY: 1.0
//
SEQ STRING: AUAAAAGCGCCAGAAUUACAGAAAUGUAGUUGGCGAGGUGGAGGUUUAUCGAAUUUUCGGCGGAUGCCUCCAAA [C16U A33G A39U]
ASSIGNED CATEGORY: 0.0
//
SEQ STRING: AUAAAAGCGCCAGAACUACAGAAAUGUAGUUGACGAGGUGGAGGUUUAUCGAAUUUCCGGCGGAUGCCUCCAAA [A39U U57C]
ASSIGNED CATEGORY: 0.0
//
SEQ STRING: AUAAAAGCGCCAGAAGUACAGAAAUGUAGUUGACGAGGAGGAGGUUUGUCGAAUUUUCGGCGGAUGCUUCCAAA [C16G A48G C68U]
ASSIGNED CATEGORY: 0.0
//
SEQ STRING: AUAAAAGCGCCAGAACUACAGAAAUGUAGUUGACGAGGACGAGGUUUUUCGAAUUUUCGGCGGAUGCCUCCAAA [G40C A48U]
ASSIGNED CATEGORY: 0.0
//
SEQ STRING: AUAAAAGCGCCAGAACUACAGAAAUGUAGUUUACGAGGAGAAGGUUUAUCGAAUUUUCGGCGGAUCCGUCCAAA [G32U G41A G66C C68G]
ASSIGNED CATEGORY: 0.0
//
SEQ STRING: AUAAAAGCGACAGAACUACAGAAAUGUAGUUGACGAGGAGGAGGUUUAUGGAAUUUUCGGCGCAUGCCUCCAAA [C10A C50G G63C]
ASSIGNED CATEGORY: 0.0
//
SEQ STRING: AUAAAAGCUCCAGAACUACAGAAAUGUAGUUGACGACGAGGAGGUUUAUCGAAUUUUCGGCGGAUGCCUCCAAA [G9U G37C]
ASSIGNED CATEGORY: 0.0
//
SEQ STRING: AUAAAAGCGCCAGAACUACAGAAAUGUAGUUGACGAAGUGGAGGUUUAUCGAAUUUUCGGCGGAUGCCUCCAAA [G37A A39U]
ASSIGNED CATEGORY: 1.0
//
SEQ STRING: AUAAAAGGGCCAGAACUACAGAAAUGUAGUUGACGUGGAGGAGGUUUAUCGAAUUUUCGCCGGAUGCCUCCAAA [C8G A36U G60C]
ASSIGNED CATEGORY: 0.0
